This collection of values is drawn from patent US8178506B2.

- System: HeLa cells
- PROTOCOL: Cell cycle assay in HeLa cells
- Format: cell-based, human
- PARTICULARS: HeLa cells, 150 nM oligomeric compound, 24 hours, relative to untreated control (UTC = 100)
- Experimental: In some embodiments, HeLa cells were plated on collagen-coated 24-well plates at 50,000-60,000 cells per well, and allowed to attach to wells overnight. […] In some embodiments, HeLa cells were also treated with oligomeric compounds targeting miRNAs. […] The cell cycle profile was analyzed with the ModFit program (Verity Software House, Inc., Topsham Me.). […]
In the oligonucleotide strings, read from the 5' end, every base follows the letter of its sugar. An asterisk marks phosphorothioate; unmarked linkages are phosphodiester. Other units and linkages are bracketed, terminal groups are in braces. A string of capitals states the bases alone. e = 2'-O-(2-methoxyethyl) (MOE); [5mC] = 5-methylcytosine; d = 2'-deoxy (DNA)
PROPERTY_MEASURED: % cells in cell cycle phase subG1

| SUBSTANCE | % cells in cell cycle phase subG1 |
| --- | --- |
| 328388 (eT*e[5mC]*e[5mC]*e[5mC]*eA*dT*dA*dG*d[5mC]*dA*dG*dG*dG*d[5mC]*dA*eG*eA*eG*e[5mC]*e[5mC]; antisense) [compound 328388] | 120% |

What does the data say about its % cells in cell cycle phase subG1? Entry: 327956 (antisense e[5mC]*eA*e[5mC]*eA*eG*eT*eT*eG*e[5mC]*e[5mC]*eA*eG*e[5mC]*eT*eG*eA*eG*eA*eT*eT*eA) [compound 327956]
120%

What does the data say about its % cells in cell cycle phase subG1? Entry: 327949 (antisense e[5mC]*eA*e[5mC]*eA*eA*eA*eT*eT*e[5mC]*eG*eG*eA*eT*e[5mC]*eT*eA*e[5mC]*eA*eG*eG*eG*eT*eA) [compound 327949]
194%

What does the data say about its % cells in cell cycle phase subG1? Entry: 327892 (antisense eA*e[5mC]*eT*eT*eT*e[5mC]*eG*eG*eT*eT*eA*eT*e[5mC]*eT*eA*eG*e[5mC]*eT*eT*eT*eA) [compound 327892]
153%

What does the data say about its % cells in cell cycle phase subG1? Entry: 345395 (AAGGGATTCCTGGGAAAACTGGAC; sugars from the 5' end e5 d10 e9, all phosphorothioate, methylation of C not given here) [compound 345395]
247%
